Test system: 361931-004-R-J1-PDC multicell spheroid viability;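 note: spheroids exposed to agents for seven days before readout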
Assay: Anticancer human tumor 361931-004-R-J1-PDC patient-derived colon adenocarcinoma cell line growth inhibition [PI3K]
Settings: second compound 0.316 µM; first compound 0.000316 µM; stronger effect = lower value
Property: viability, T/C (%)
Numbers only; they are read as %.

Observe how each entry below is paired with its result.
• CC(C)n1nc(-c2ccc3oc(N)nc3c2)c2c(N)ncnc21 + CC(Nc1ncnc2nc[nH]c12)c1cc2cccc(Cl)c2c(=O)n1-c1ccccc1 = 98.2
• Cn1ncnc1[C@H]1c2n[nH]c(=O)c3cc(F)cc(c23)N[C@@H]1c1ccc(F)cc1 + CC(Nc1ccc2c(c1)OCCn1cc(N3C(=O)OCC3C(F)F)nc1-2)C(N)=O = 89.3
• CC(=O)c1c(C)c2cnc(Nc3ccc(N4CCNCC4)cn3)nc2n(C2CCCC2)c1=O + CC(Nc1ncnc2nc[nH]c12)c1cc2cccc(Cl)c2c(=O)n1-c1ccccc1 = 108
• CC(C)n1nc(-c2ccc3oc(N)nc3c2)c2c(N)ncnc21 + Cc1nc(NC(=O)N2CCCC2C(N)=O)sc1-c1ccnc(C(C)(C)C(F)(F)F)c1 = 106
• CC(=O)c1c(C)c2cnc(Nc3ccc(N4CCNCC4)cn3)nc2n(C2CCCC2)c1=O + CC(Nc1ccc2c(c1)OCCn1cc(N3C(=O)OCC3C(F)F)nc1-2)C(N)=O = 96.5
• CC(=O)c1c(C)c2cnc(Nc3ccc(N4CCNCC4)cn3)nc2n(C2CCCC2)c1=O + Cc1nc(NC(=O)N2CCCC2C(N)=O)sc1-c1ccnc(C(C)(C)C(F)(F)F)c1 = 106
• CC(=O)c1c(C)c2cnc(Nc3ccc(N4CCNCC4)cn3)nc2n(C2CCCC2)c1=O + COc1c(OCCCN2CCOCC2)ccc2c3n(c(=NC(=O)c4cnc(N)nc4)nc12)CCN3 = 50.7
• Cn1ncnc1[C@H]1c2n[nH]c(=O)c3cc(F)cc(c23)N[C@@H]1c1ccc(F)cc1 + Cc1nc(NC(=O)N2CCCC2C(N)=O)sc1-c1ccnc(C(C)(C)C(F)(F)F)c1 = 98.2

# lookup: viability, T/C of Cn1ncnc1[C@H]1c2n[nH]c(=O)c3cc(F)cc(c23)N[C@@H]1c1ccc(F)cc1 + COc1c(OCCCN2CCOCC2)ccc2c3n(c(=NC(=O)c4cnc(N)nc4)nc12)CCN3
50.5

# lookup: viability, T/C of CC(C)n1nc(-c2ccc3oc(N)nc3c2)c2c(N)ncnc21 + COc1c(OCCCN2CCOCC2)ccc2c3n(c(=NC(=O)c4cnc(N)nc4)nc12)CCN3
64.7

# lookup: viability, T/C of CC(C)n1nc(-c2ccc3oc(N)nc3c2)c2c(N)ncnc21 + CC(Nc1ccc2c(c1)OCCn1cc(N3C(=O)OCC3C(F)F)nc1-2)C(N)=O
84.9

# lookup: viability, T/C of Cn1ncnc1[C@H]1c2n[nH]c(=O)c3cc(F)cc(c23)N[C@@H]1c1ccc(F)cc1 + CC(Nc1ncnc2nc[nH]c12)c1cc2cccc(Cl)c2c(=O)n1-c1ccccc1
107
